# System: P. aeruginosa 1912E
# experiment: Minimum inhibitory concentration, agar dilution
# Assay type: cell-based
# condition parameters: Pseudomonas aeruginosa, 20 h, read-out: Minimum Inhibitory Concentration
# Protocol: The minimum inhibitory concentration was determined by diluting the test compounds according to 2-fold dilution, suspending them in M uller-Hinton agar medium, inoculating the test strains having 10^7 CFU per 1 ml into the medium and then culturing the medium at 37° C. for 20 hours.

>  <molecule>
Nc1cc[n+](N)c(SCC2=C(C(=O)[O-])N3C(=O)C(NC(=O)C(=NOC(C(=O)O)c4ccc(O)c(O)c4)c4csc(N)n4)C3SC2)n1 (stereo not drawn)

>  <MIC>
0.25 mg/L

$$$$
>  <molecule>
Cn1c(N)n[n+]2c(SCC3=C(C(=O)[O-])N4C(=O)C(NC(=O)C(=NOC(C(=O)O)c5ccc(O)c(O)c5)c5csc(N)n5)[C@H]4SC3)nc(N)cc12 (stereo partly drawn)

>  <MIC>
0.5 mg/L

$$$$
>  <molecule>
C[n+]1cc(C(=O)O)c(N)nc1SCC1=C(C(=O)[O-])N2C(=O)C(NC(=O)/C(=N\OC(C(=O)O)c3ccc(O)c(O)c3)c3csc(N)n3)[C@H]2SC1 (stereo partly drawn)

>  <MIC>
0.25 mg/L

$$$$
>  <molecule>
Cc1c(N)nc(SCC2=C(C(=O)[O-])N3C(=O)C(NC(=O)/C(=N\OC(C(=O)O)c4ccc(O)c(O)c4)c4csc(N)n4)[C@H]3SC2)[n+](N)c1N (stereo partly drawn)

>  <MIC>
0.5 mg/L

$$$$
>  <molecule>
C[n+]1c(N)cc(N)nc1SCC1=C(C(=O)[O-])N2C(=O)C(NC(=O)C(=NOC(C(=O)O)c3ccc(O)c(O)c3)c3csc(N)n3)C2SC1 (stereo not drawn)

>  <MIC>
0.5 mg/L

$$$$
>  <molecule>
CC(C)(O/N=C(\C(=O)N[C@@H]1C(=O)N2C(C(=O)[O-])=C(C[n+]3ccccc3)CS[C@H]12)c1csc(N)n1)C(=O)O [CAZ, Ceftazidime, reference compound]

>  <MIC>
1 mg/L

$$$$
